System: Community 10
Test: relative growth (AUC of 72 h growth curve relative to DMSO control, dAUC) (ratio); higher = more growth (less inhibition), active = hit call of the paper;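 active = growth AUC significantly below the DMSO wells by Dunnett test; inactive = the rest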
Conditions: 20 µM
Permitted responses: 1 (active), 0 (inactive)

Some entries whose results are on file:
{"COMPOUND": "CCC(C)(C)C(=O)OC1=C(c2ccc(Cl)cc2Cl)C(=O)OC12CCCCC2", "LABEL_VALUE": 0}
{"COMPOUND": "Nc1c([N+](=O)[O-])ccc(Oc2ccccc2)c1Cl", "LABEL_VALUE": 0}
{"COMPOUND": "O=[N+]([O-])c1cc(C(F)(F)F)c(Cl)c([N+](=O)[O-])c1Nc1ncc(C(F)(F)F)cc1Cl", "LABEL_VALUE": 1}
{"COMPOUND": "CCc1cccc(C)c1N(C(=O)CCl)[C@@H](C)COC", "LABEL_VALUE": 0}
{"COMPOUND": "COP(=S)(OC)SCN1C(=O)c2ccccc2C1=O", "LABEL_VALUE": 0}

Dear all, I need the recorded test outcome for "CCOP(=S)(OCC)Oc1nc(Cl)c(Cl)cc1Cl" , thank you.
0

So what was the verdict on "C#CCN1C(=O)COc2cc(F)c(N3C(=O)C4=C(CCCC4)C3=O)cc21" in this test?
0

I'd appreciate the recorded outcome for "O=C(Nc1ccc(F)cc1F)c1cccnc1Oc1cccc(C(F)(F)F)c1" from this test.
0

---

Tested on: Hymenobacter 1 (Hymenobacter glaciei)
Assay: relative growth (AUC of 72 h growth curve relative to DMSO control, dAUC) (ratio); higher = more growth (less inhibition), active = hit call of the paper
Conditions: 20 µM
# relative growth per entry
Just the number.

{"COMPOUND": "OC(Cc1ccccc1Cl)(Cn1nc[nH]c1=S)C1(Cl)CC1 (configuration not stated)", "relative growth": 1.01}

Reported relative growth for "CNC(=O)Oc1cccc2ccccc12" : what is it?
1.03

What measured relative growth goes with "CSc1nc(NC(C)C)nc(NC(C)C)n1" ?
0.914

// relative growth lookup, key: "COc1ccc(-c2ccccc2)cc1NNC(=O)OC(C)C"
0.987

---

Attribute: relative growth
Test system: Aeromonas 1 (Aeromonas sp. AE235)
Assay: relative growth (AUC of 72 h growth curve relative to DMSO control, dAUC) (ratio); higher = more growth (less inhibition), active = hit call of the paper
Settings: 20 µM
Give your answer as a number; write no unit.

Reference set (5 entries):
{"COMPOUND": "CNC(=O)Oc1cccc(/N=C/N(C)C)c1", "ASSAY_METRIC": "relative growth", "ASSAY_VALUE": 1}
{"COMPOUND": "CNC(=O)CSP(=S)(OC)OC", "ASSAY_METRIC": "relative growth", "ASSAY_VALUE": 0.944}
{"COMPOUND": "CCNc1nc(Cl)nc(NC(C)C)n1", "ASSAY_METRIC": "relative growth", "ASSAY_VALUE": 0.965}
{"COMPOUND": "N#C/N=C1\\SCCN1Cc1ccc(Cl)nc1", "ASSAY_METRIC": "relative growth", "ASSAY_VALUE": 0.998}
{"COMPOUND": "O=C1C2(Cl)C3(Cl)C4(Cl)C(Cl)(Cl)C5(Cl)C3(Cl)C1(Cl)C5(Cl)C24Cl (stereo not given)", "ASSAY_METRIC": "relative growth", "ASSAY_VALUE": 0.934}

Would you kindly share the measured relative growth for "CS(=O)(=O)NC(=O)c1cc(Oc2ccc(C(F)(F)F)cc2Cl)ccc1[N+](=O)[O-]" ?
1.02

Could you share which relative growth value was measured for CC1(C)C(C=C(Cl)Cl)C1C(=O)OCc1cccc(Oc2ccccc2)c1 (stereo not given) ?
1.03

---

System: Prolinoborus 1 (Prolinoborus fasciculus)
Experiment: relative growth (AUC of 72 h growth curve relative to DMSO control, dAUC) (ratio); higher = more growth (less inhibition), active = hit call of the paper
Details: 20 µM
# reported relative growth; entries follow
Answer with the value's number alone.

Worked set:
{"COMPOUND": "COCC(C)N(C(=O)CCl)c1c(C)csc1C (configuration not stated)", "ASSAY_VALUE": 0.925}
{"COMPOUND": "OC(Cn1cncn1)(c1ccc(F)cc1)c1ccccc1F (configuration not stated)", "ASSAY_VALUE": 0.985}
{"COMPOUND": "CC(C)(C)C(O)(CCc1ccc(Cl)cc1)Cn1cncn1 (configuration not stated)", "ASSAY_VALUE": 0.931}
{"COMPOUND": "COCC(=O)N(c1c(C)cccc1C)[C@H](C)C(=O)OC", "ASSAY_VALUE": 0.988}
{"COMPOUND": "C[C@@H]1[C@@H](c2ccc(Cl)cc2)SC(=O)N1C(=O)NC1CCCCC1", "ASSAY_VALUE": 0.994}
{"COMPOUND": "O=C(NCCc1ncc(C(F)(F)F)cc1Cl)c1ccccc1C(F)(F)F", "ASSAY_VALUE": 0.967}
{"COMPOUND": "COC(=O)Nc1nc2ccccc2[nH]1", "ASSAY_VALUE": 1.03}
{"COMPOUND": "O=C1C=C(N(Cc2ccc(Cl)nc2)CC(F)F)CO1", "ASSAY_VALUE": 0.95}

Given the entry "CN(C)C(CSS(=O)(=O)O)CSS(=O)(=O)O" , what relative growth was observed with Prolinoborus 1 (Prolinoborus fasciculus)?
0.961

Lab note: need relative growth for CCSC(C)CC1CC(=O)C(/C(CC)=N/OC/C=C/Cl)=C(O)C1 (mixture of isomers) on Prolinoborus 1 (Prolinoborus fasciculus), anyone have it?
0.983

Observed relative growth on Prolinoborus 1 (Prolinoborus fasciculus) for COCc1cnc(C2=NC(C)(C(C)C)C(=O)N2)c(C(=O)O)c1 (configuration not stated) , please.
1.08

What value of relative growth on Prolinoborus 1 (Prolinoborus fasciculus) does "Cc1cccc2sc3nncn3c12" have?
1.01

---

System: Aeromonas 2 (Aeromonas sobria)
Assay: relative growth (AUC of 72 h growth curve relative to DMSO control, dAUC) (ratio); higher = more growth (less inhibition), active = hit call of the paper
Conditions: 20 µM
Mark false for relative growth values under 1, and true for everything at or above.

Some solved entries appear below for comparison.
{"MOLECULE": "CC(C)(C)[C@@H](O)[C@H](Oc1ccc(Cl)cc1)n1cncn1", "LABEL_VALUE": "true"}
{"MOLECULE": "O=C1C2(Cl)C3(Cl)C4(Cl)C(Cl)(Cl)C5(Cl)C3(Cl)C1(Cl)C5(Cl)C24Cl (stereo unspecified)", "LABEL_VALUE": "false"}
{"MOLECULE": "CCCCCCCCCCCCNC(=N)N", "LABEL_VALUE": "false"}
{"MOLECULE": "OC(Cn1cncn1)(c1ccc(F)cc1)c1ccccc1F (stereo unspecified)", "LABEL_VALUE": "true"}
{"MOLECULE": "CCCCc1c(C)nc(NCC)nc1OS(=O)(=O)N(C)C", "LABEL_VALUE": "false"}
{"MOLECULE": "C#CCN1C(=O)COc2cc(F)c(N3C(=O)C4=C(CCCC4)C3=O)cc21", "LABEL_VALUE": "false"}
{"MOLECULE": "CC(C)CC(C)c1sccc1NC(=O)c1cn(C)nc1C(F)(F)F (stereo unspecified)", "LABEL_VALUE": "false"}
{"MOLECULE": "CCC(C)(C)C(=O)OC1=C(c2ccc(Cl)cc2Cl)C(=O)OC12CCCCC2", "LABEL_VALUE": "false"}
{"MOLECULE": "COP(=S)(OC)SCN1C(=O)c2ccccc2C1=O", "LABEL_VALUE": "true"}
{"MOLECULE": "CC1COC(Cn2cncn2)(c2ccc(Oc3ccc(Cl)cc3)cc2Cl)O1 (stereo unspecified)", "LABEL_VALUE": "true"}

Form field: relative growth at least 1? Entry: "CC(C)NC(=O)N1CC(=O)N(c2cc(Cl)cc(Cl)c2)C1=O"
false

I'd appreciate it if you could say whether "O=C1c2ccccc2C(=O)N1SC(Cl)(Cl)Cl" has relative growth at least equal to 1.
false

Does relative growth meet or surpass 1 for "COc1cc(C)c(C(=O)c2c(OC)ccc(Br)c2C)c(OC)c1OC" ?
true

---

System: Pseudomonas 4 (Pseudomonas peli)
Assay: relative growth (AUC of 72 h growth curve relative to DMSO control, dAUC) (ratio); higher = more growth (less inhibition), active = hit call of the paper
Settings: 20 µM
The entries below come with measured relative growth values attached.
Lab note: record the figure alone, no unit after it.

Worked set:
{"MOLECULE": "O=C1C=C(N(Cc2ccc(Cl)nc2)CC(F)F)CO1", "ASSAY_SYSTEM": "Pseudomonas 4 (Pseudomonas peli)", "ASSAY_VALUE": 0.993}
{"MOLECULE": "COP(N)(=O)SC (stereo unspecified)", "ASSAY_SYSTEM": "Pseudomonas 4 (Pseudomonas peli)", "ASSAY_VALUE": 0.995}

Reported relative growth, molecule "CCCCOC(=O)[C@H](C)Oc1ccc(Oc2ccc(C#N)cc2F)cc1" : ____
0.967

Field request: relative growth | item: "CO/N=C(/C(=O)OC)c1ccccc1CO/N=C(\C)c1cccc(C(F)(F)F)c1"
0.949

I'd like to know its relative growth. The molecule in question is CCc1cnc(C2=NC(C)(C(C)C)C(=O)N2)c(C(=O)O)c1 (stereo unspecified)
0.967

So what does the record say about relative growth for O=C(NC(=O)c1c(F)cccc1F)Nc1ccc(OC(F)(F)C(F)OC(F)(F)F)c(Cl)c1 (stereo unspecified) ?
0.961

Form field: reported relative growth of "CCCN(CCC)C(=O)SCc1ccccc1"
0.979

Would you kindly share the measured relative growth for COP(=O)(NC(C)=O)SC (stereo unspecified) ?
1.02

I have this molecule here, "CS(=O)(=O)c1ccc(C(=O)C2C(=O)CCCC2=O)c([N+](=O)[O-])c1" , and I need its recorded relative growth.
1.05

Entry "CN1COCN(Cc2cnc(Cl)s2)/C1=N\[N+](=O)[O-]" : reported relative growth = ?
0.996

Consider the molecule shown here: CC1(C)C(C(=O)OC(C#N)c2cccc(Oc3ccccc3)c2)C1(C)C (stereo unspecified) What is its recorded relative growth?
0.948
